test system: human Factor 7 mRNA; test: Antisense inhibition of human Factor 7 mRNA in HepB3 cells, lipofectin, 50 nM, real-time RT-PCR; format: cell-based; details: HepB3 cells; gapmers targeted to nucleobases 11830 to 11869 of SEQ ID NO: 1 (Table 9)
In the oligonucleotide strings, read from the 5' end, every base follows the letter of its sugar. An asterisk marks phosphorothioate; unmarked linkages are phosphodiester. Other units and linkages are bracketed, terminal groups are in braces. A string of capitals states the bases alone. e = 2'-O-(2-methoxyethyl) (MOE); [5mC] = 5-methylcytosine; d = 2'-deoxy (DNA)
observable: % Inhibition of human Factor 7 mRNA levels (%)
Please give a number only; it is taken to be in %.

- substance: "422098 (antisense eG*eG*eA*eG*eA*d[5mC]*dA*dA*dT*dG*dG*dT*d[5mC]*dA*dG*eG*eG*e[5mC]*eT*eG) [compound 422098]"
  unit_descriptor: "%"
  obs_value: 53
- substance: "422240 (antisense eA*eG*dA*d[5mC]*dA*dA*dT*dG*dG*dT*d[5mC]*dA*dG*dG*dG*e[5mC]*eT*eG*eG*eT) [compound 422240]"
  unit_descriptor: "%"
  obs_value: 66
- substance: "422249 (antisense eT*eG*dG*d[5mC]*dT*dG*dA*dG*dG*dA*dG*dA*d[5mC]*dA*dA*eT*eG*eG*eT*e[5mC]) [compound 422249]"
  unit_descriptor: "%"
  obs_value: 52

Enquiry: Endpoint output: % Inhibition of human Factor 7 mRNA levels of 422172 (antisense eT*eG*eG*d[5mC]*dT*dG*dA*dG*dG*dA*dG*dA*d[5mC]*dA*dA*dT*dG*eG*eT*e[5mC]) [compound 422172] . Value?
Return: 39

Enquiry: Please report the recorded % Inhibition of human Factor 7 mRNA levels for 422234 (antisense eT*eG*dG*dT*d[5mC]*dA*dG*dG*dG*d[5mC]*dT*dG*dG*dT*dT*eT*eT*eG*eG*eA) [compound 422234] .
Return: 62

Enquiry: Requested read-out: % Inhibition of human Factor 7 mRNA levels. Entry: 422236 (antisense eA*eA*dT*dG*dG*dT*d[5mC]*dA*dG*dG*dG*d[5mC]*dT*dG*dG*eT*eT*eT*eT*eG) [compound 422236]
Return: 44

---

test system: human Factor 7 mRNA; assay: Inhibition of human Factor 7 mRNA by 2-10-2 MOE shortmers in HepB3 cells, electroporation, 1,000 nM; format: cell-based; details: electroporation, 1,000 nM oligonucleotide, approximately 24 hours, relative to untreated control cells
In the oligonucleotide strings, read from the 5' end, every base follows the letter of its sugar. An asterisk marks phosphorothioate; unmarked linkages are phosphodiester. Other units and linkages are bracketed, terminal groups are in braces. A string of capitals states the bases alone. e = 2'-O-(2-methoxyethyl) (MOE); [5mC] = 5-methylcytosine; d = 2'-deoxy (DNA)
observable: % inhibition of human Factor 7 mRNA (%)
Give the number; % is assumed, so skip it.

Consider the reported % inhibition of human Factor 7 mRNA for these substances:
- substance: "435745 (antisense eG*eG*dG*dA*dG*d[5mC]*dT*dA*d[5mC]*dA*dG*d[5mC]*e[5mC]*eT) [compound 435745]"
  % inhibition of human Factor 7 mRNA, %: 0
- substance: "435692 (antisense e[5mC]*eG*dG*dT*d[5mC]*d[5mC]*dA*dG*d[5mC]*dA*dG*d[5mC]*eT*eG) [compound 435692]"
  % inhibition of human Factor 7 mRNA, %: 32
- substance: "435718 (antisense eG*e[5mC]*dT*d[5mC]*dG*d[5mC]*dA*dG*dG*dA*dG*dG*eA*e[5mC]) [compound 435718]"
  % inhibition of human Factor 7 mRNA, %: 26
- substance: "435697 (antisense eA*eG*dT*dA*dG*d[5mC]*d[5mC]*dG*dG*d[5mC]*dA*d[5mC]*eA*eG) [compound 435697]"
  % inhibition of human Factor 7 mRNA, %: 53
- substance: "435478 (antisense eG*eA*dG*dG*d[5mC]*dA*d[5mC]*dA*d[5mC]*dT*dG*dG*eT*e[5mC]) [compound 435478]"
  % inhibition of human Factor 7 mRNA, %: 43
- substance: "435827 (antisense eT*e[5mC]*dA*dG*dA*dA*dA*dG*dA*dT*dG*d[5mC]*eA*eG) [compound 435827]"
  % inhibition of human Factor 7 mRNA, %: 5
- substance: "435689 (antisense eT*eT*d[5mC]*dG*dG*dG*d[5mC]*dA*dG*dG*d[5mC]*dA*eG*eA) [compound 435689]"
  % inhibition of human Factor 7 mRNA, %: 23
- substance: "435770 (antisense e[5mC]*eT*d[5mC]*dT*dG*dA*dG*dA*dG*dG*d[5mC]*d[5mC]*e[5mC]*e[5mC]) [compound 435770]"
  % inhibition of human Factor 7 mRNA, %: 81
- substance: "435787 (antisense eG*eA*dG*dT*dG*dT*dG*dA*dG*dG*d[5mC]*dT*eT*e[5mC]) [compound 435787]"
  % inhibition of human Factor 7 mRNA, %: 34
- substance: "435793 (antisense eT*eG*d[5mC]*dA*dG*dT*dA*dG*d[5mC]*dA*dG*dA*eT*eG) [compound 435793]"
  % inhibition of human Factor 7 mRNA, %: 27

Enquiry: Data request, read-out % inhibition of human Factor 7 mRNA, for 435661 (antisense eG*eG*dA*d[5mC]*dA*d[5mC]*d[5mC]*d[5mC]*d[5mC]*dG*dT*d[5mC]*eT*eG) [compound 435661]
Return: 18

Enquiry: Requested read-out: % inhibition of human Factor 7 mRNA. Entry: 435719 (antisense e[5mC]*eA*dG*d[5mC]*d[5mC]*dT*dT*dG*dG*d[5mC]*dT*dT*eT*e[5mC]) [compound 435719]
Return: 50

Enquiry: Entry 435818 (antisense eG*eT*d[5mC]*dA*dT*d[5mC]*d[5mC]*dT*dT*dG*dT*d[5mC]*eT*eG) [compound 435818] has what % inhibition of human Factor 7 mRNA?
Return: 43

---

system: human Factor 7 mRNA; assay: Dose-dependent antisense inhibition of human Factor 7 in HepB3 cells, transfection with electroporation; assay type: cell-based; settings: 12.5 μM, 16 hours (Example 7, Table 15)
In the oligonucleotide strings, read from the 5' end, every base follows the letter of its sugar. An asterisk marks phosphorothioate; unmarked linkages are phosphodiester. Other units and linkages are bracketed, terminal groups are in braces. A string of capitals states the bases alone. e = 2'-O-(2-methoxyethyl) (MOE); [5mC] = 5-methylcytosine; d = 2'-deoxy (DNA)
Label scheme for percent inhibition of Factor 7 mRNA, relative to untreated control cells: lower than 40% is rule not met, 40% and above is rule met.

Please review the following examples before continuing.
- substance: "422183 (antisense eG*e[5mC]*eG*d[5mC]*d[5mC]*dA*d[5mC]*d[5mC]*d[5mC]*dG*d[5mC]*d[5mC]*dG*dG*d[5mC]*dT*d[5mC]*eT*eG*e[5mC]) [compound 422183]"
  assigned_category: "rule not met"
- substance: "407935 (antisense eA*eT*eG*e[5mC]*eA*dT*dG*dG*dT*dG*dA*dT*dG*d[5mC]*dT*eT*e[5mC]*eT*eG*eA) [compound 407935]"
  assigned_category: "rule met"
- substance: "407939 (antisense eT*eG*e[5mC]*eA*eG*d[5mC]*d[5mC]*d[5mC]*dG*dG*d[5mC]*dA*d[5mC]*d[5mC]*d[5mC]*eA*eG*e[5mC]*eG*eA) [compound 407939]"
  assigned_category: "rule met"
- substance: "422215 (antisense eG*eT*eT*d[5mC]*dT*dG*d[5mC]*dA*dG*dG*dA*dG*d[5mC]*dG*dG*d[5mC]*d[5mC]*eT*eA*eA) [compound 422215]"
  assigned_category: "rule not met"
- substance: "422217 (antisense eG*eA*eG*dT*dT*d[5mC]*dT*dG*d[5mC]*dA*dG*dG*dA*dG*d[5mC]*dG*dG*e[5mC]*e[5mC]*eT) [compound 422217]"
  assigned_category: "rule not met"

Enquiry: I'd appreciate it if you could say whether 422152 (antisense eA*eT*eG*d[5mC]*dA*dT*dG*dG*dT*dG*dA*dT*dG*d[5mC]*dT*dT*d[5mC]*eT*eG*eA) [compound 422152] has percent inhibition of Factor 7 mRNA, relative to untreated control cells at least equal to 40%.
Return: rule not met

Enquiry: Hi, just wondering whether 422096 (antisense eA*eG*eA*e[5mC]*eA*dA*dT*dG*dG*dT*d[5mC]*dA*dG*dG*dG*e[5mC]*eT*eG*eG*eT) [compound 422096] shows percent inhibition of Factor 7 mRNA, relative to untreated control cells of 40% or higher.
Return: rule met

Enquiry: Does 422229 (antisense eA*eT*dG*d[5mC]*dA*dT*dG*dG*dT*dG*dA*dT*dG*d[5mC]*dT*eT*e[5mC]*eT*eG*eA) [compound 422229] have a reported percent inhibition of Factor 7 mRNA, relative to untreated control cells of at least 40%?
Return: rule not met

Enquiry: // inclusive: percent inhibition of Factor 7 mRNA, relative to untreated control cells at least 40%? input: 422086 (antisense eT*eG*e[5mC]*eA*eT*dG*dG*dT*dG*dA*dT*dG*d[5mC]*dT*dT*e[5mC]*eT*eG*eA*eA) [compound 422086]
Return: rule met
